target: T1, antibody raised against ETAG; assay: phage ELISA
T1 construct: Coated at 500 ng/well; also called E-tag antibody
measure: ETAG (OD)
State the answer as a number, implicitly in OD.

GAIRLSGAAWTASRTGGRASAAAGAPVPYPDPLEPRP [DGI-2-20F-PP-E7]	21.5
GGGRESWGGGWFMGWGSGAGAAAGAPVPYPDPLEPRP [DGI-2-20R-3-A6]	17.7
GGSLPVKSGQLVTCCTSKGGAAAGAPVPYPDPLEPRP [DGI-2-20F-PP-F5]	16.3

Quick one: ETAG (OD) for LLLPVRWRDAQPRSLLMEWIAAAGAPVPYPDPLEPRP [DGI-2-20F-PP-F8] ? 7.6

Can you handle DGI-2-40F-4-F122 (peptide) peptide: RSQVRVVSRERSTPVLHRIECLLFSGWCVTSGSDEGVVWGAAAGAPVPYPDPLEPRP next? 8.1

Now consider GSTRLRVTVRFCSETGTPGCAAAGAPVPYPDPLEPRP [DGI-2-20F-PP-G6] and answer again. 36.1

Then KVWGCGARRGWERLGHLNQVAAAGAPVPYPDPLEPRP [DGI-2-20F-PP-B10] ? 27.1

Try the binder CGGWGAMWEAWVQGLNGAGCAAAGAPVPYPDPLEPRP [DGI-2-20R-3-D4] 18.9

Now try LFSATGCALMSGFCLGSDGSAAAGAPVPYPDPLEPRP [DGI-2-20R-3-C1] . 14

Another binder to look at: QLDCLVWGLPGLRCDRPLEQAAAGAPVPYPDPLEPRP [DGI-2-20R-3-B10] 17
